Assay: MRT in Wistar rat at 1 mg, iv by LC/MS analysis
Assay type: ADME, organism-based
Settings: in vivo
Square brackets hold non-standard residues; d marks the D form. Peptide text beside a SMILES is read from it. * marks the point of attachment. Phe(4-F) = N[C@@H](Cc1ccc(F)cc1)C(=O)O; Acetyl(2-thienyl) = O=C(Cc1cccs1)*
valueKind: MRT (min)
Just the number please, in min, no unit attached.

Q. Tell me measured MRT for N=C(N)NCCC[C@H](NC(=O)[C@@H]1CCCN1C(=O)[C@H](CCCNC(=N)N)NC(=O)[C@H](Cc1ccc(F)cc1)NC(=O)[C@H](Cc1c[nH]c2ccccc12)NC(=O)Cc1cccs1)C(=O)N[C@@H](CC(N)=O)C(N)=O ({Acetyl(2-thienyl)}-W[Phe(4-F)]RPRN-NH2) please.
A. 11.5

Data credit: ChEMBL document CHEMBL4014341
